- Test system: Escherichia coli O157:H7 sakai
- Type: cell-based
- Test conditions: O157:H7, 24 h
No end group written: not given here.
Measured antimicrobial activity after 24 hours: MIC accompanies every entry in the list below.
Only the number, expressed in µM, is required.

Record excerpt, results attached:
Task: Requested field: antimicrobial activity after 24 hours: MIC. Item: PKKKRKVPKKKRKV [sample 16, PKKKRKVPKKKRKV]
Result: 17.9

Task: Looking for the measured antimicrobial activity after 24 hours: MIC of RIRKKLRRIRKKLR [sample 17, RIRKKLRRIRKKLR] , can you help?
Result: 8.1

Task: Can you share its antimicrobial activity after 24 hours: MIC? I mean this sequence: RKKKRKVRKKKRKV [sample 20, RKKKRKVRKKKRKV]
Result: 8.4

New cases:
Task: Please give the measured antimicrobial activity after 24 hours: MIC for this sequence: RKKKRKVLALKLAGLDI [sample 14, RKKKRKVLALKLAGLDI]
Result: 8.0
